system: NCI-H226 lung; assay: NCI tumour cell line growth inhibition, 48 h
Metric Name: GI50

* Nc1ncc(-c2ccc3ncnc(N4CCc5cc(F)c(F)cc54)c3c2)cn1 | 3000 nM
* CCc1cccc2c3c(sc12)C(c1ccc(OC)cc1)C(C#N)=C(/N=C/c1ccc(Cl)cc1)O3 (centres undefined) | 2590 nM
* CSc1ccc(/C(=N/N=C(N)N)c2ccc(Cl)cc2)cc1 | 1180 nM
* CCCCCCNC(=O)Oc1ccc(/C(=C(/C)c2ccccc2)c2ccc(OCCN3CCCCCC3)cc2)cc1 | 13300 nM

---

tested on: RPMI-8226 leukemia; test: NCI tumour cell line growth inhibition, 48 h
Let's look at some compounds and their measured TGI.
Metric Name: TGI

* CCCCCCNC(=O)Oc1ccc(/C(=C(/C)c2ccccc2)c2ccc(OCCN3CCCCCC3)cc2)cc1 | 23 µM
* CCc1cccc2c3c(sc12)C(c1ccc(OC)cc1)C(C#N)=C(/N=C/c1ccc(Cl)cc1)O3 (centres undefined) | 7.27 µM
* Nc1ncc(-c2ccc3ncnc(N4CCc5cc(F)c(F)cc54)c3c2)cn1 | > 100 µM
* O=C(N/N=C\c1ccc([N+](=O)[O-])cc1)c1ccc2nc(-c3ccc(Br)cc3)[nH]c2c1 | 2.88 µM

---

Let's look at some compounds and their measured GI50.
test system: IGROV1 ovarian; assay: NCI tumour cell line growth inhibition, 48 h
Metric Name: GI50

- O=C(N/N=C\c1ccc([N+](=O)[O-])cc1)c1ccc2nc(-c3ccc(Br)cc3)[nH]c2c1: 1610 nM
- Nc1ncc(-c2ccc3ncnc(N4CCc5cc(F)c(F)cc54)c3c2)cn1: 459 nM
- CCc1cccc2c3c(sc12)C(c1ccc(OC)cc1)C(C#N)=C(/N=C/c1ccc(Cl)cc1)O3 (stereo not given): 1670 nM
- CCCCCCNC(=O)Oc1ccc(/C(=C(/C)c2ccccc2)c2ccc(OCCN3CCCCCC3)cc2)cc1: 11900 nM
- CSc1ccc(/C(=N/N=C(N)N)c2ccc(Cl)cc2)cc1: 860 nM

Hello, the source for this data is PubChem BioAssay (NCI), in case you need it.
